Measured hN3, inhibition of Luc activity at [166 nM] Mab values are reported for all entries that follow.
molecular target: human Notch3-Gal4 chimeric receptor on U2OS FlpIn TREx cells (human, UniProt Q9UM47 40-2321); experiment: cell-based or functional assay

Worked cases, answers included:
# binder, obs-value
rows = [
    ("FL-SKNAS-C2-514 (antibody, human IgG1, lambda, V domains shown, full IgG1/lambda chains; name tied through the DNA section of Appendix IX (same order); also called B-000000402-000X) VH: EVQLVQSGAEVKEPGESLRISCKASGYDFSNYWIAWVRQMPGKGLEWMGIIYPGDSDTRYSPSFQGQVTISVDRSISTAYLQWSSLKASDTALYYCSRPTYWSTTWGREFDYWGQGTLVTVSS VL: SYELTQPPSVSVSPGQTATITCSGDALPKKYAYWYQQKSGQAPVLVVYEDSKRPSGIPERFSGSSSGTMATLTISGAQVEDEADYYCYSTDSSGNHWVFGGGTKLTVLG", "< 5%"),
    ("FL-SKNAS-C2-384 (antibody, human IgG1, lambda, V domains shown) VH: EVQLVQSGAEVKKPGSSVKVSCKASGGTLSSSAISWVRQAPGEGLEWMGGIIPMFDSTNYAQKFQGRVTITADESTSTAFMELSSLRSDDTAVYYCGRDPYYDRLSGGGYMDVWGQGTLVTVSS VL: SYVLTQPPSVSGALRQTATVTCTGNSSNVGNQGAAWLRQHQGRPPKLLSYRNNDRPSGVSQRFSASTSGNTASLTITGLQSEDEADYFCSAWDSSRSGWVFGGGTKLTVLG", "< 5%"),
    ("A673-C2-110 (antibody, human IgG1, lambda, V domains shown) VH: QVQLVQSGTEVKKPGASVRVSCKPSADTFTSYYVHWVRQAPGQGLEWMGTINPTGTYTRYAQQFQGRVTVTRDTSTSSVYMELSSLRSEDSAVYYCARDVRPYTAMYSFDNWGRGTTVTVSS VL: SYVLTQPPSVSVSPGQTATITCSGDALPKQYANWYQQKPGQAPVLMIYKDSDRPSGIPERFSGSSSGTKATLTISGVQAEDEADYYCQSADNSGTNYVFGTGTKLTVLG", "< 10%"),
]

Now look at this one.
Which hN3, inhibition of Luc activity at [166 nM] Mab is listed for FL-JEG3-C2-11 (antibody, human IgG1, lambda, V domains shown, full IgG1/lambda chains; name tied through the DNA section of Appendix IX (same order); also called JEG-C2-11; B-000000399-000E) VH: QLQLVETGGGLVQPVGSLRLSCAASGFSFDNYAMSWVRQAPGKGLEWVSSISGSGGQIFYADSVKGRFTISRDNAKNTLVLQMNSLRVDDTAVYYCARDFYRTPGYNTNWGYWGRGTMVTVSS VL: SYVLTQPPSVSVSPGETASISCSGDGLGNKYVAWYQQKPGQSPVLVIQQDSKRPSGIPERFSGSNSGDTATLTISGTQSLDEGDYYCQAWDRPAVIFGGGTKLTVLG ?
< 5%
